- Test system: IBV
- TEST_PROTOCOL: microbe, parasite or virus in culture
- Assay type: cell-based, Avian Infectious Bronchitis virus
- CONDITION_INFO: CC50/IC50
METRIC: SI (selectivity index), IBV

-- ask Supply reported SI (selectivity index), IBV belonging to this compound: Nc1nc2c(ncn2[C@@H](CO)OC(CO)CO)c(=O)[nH]1 [Acyclic diol-guanosine, acyclic diol form of guanosine]
-- reply >5.6

-- ask Supply reported SI (selectivity index), IBV belonging to this compound: O=C[C@@H](CO)O[C@H](C=O)n1cnc2c(=O)[nH]cnc21 [Dialdehyde-inosine, dialdehyde form of inosine]
-- reply >130

-- ask Supply reported SI (selectivity index), IBV belonging to this compound: O=c1[nH]cnc2c1ncn2[C@@H](CO)OC(CO)CO [Acyclic diol-inosine, acyclic diol form of inosine]
-- reply >3.8

-- ask Supply reported SI (selectivity index), IBV belonging to this compound: O=C[C@@H](CO)O[C@H](C=O)n1cnc2c(=O)[nH]c(=O)[nH]c21 [Dialdehyde-xanthosine, dialdehyde form of xanthosine]
-- reply >44.3

----------
- TEST_PROTOCOL: Cytotoxicity, MDBK cell tests
- CONDITION_INFO: bovine, MDBK cells
METRIC: CC50

Observe how each entry below is paired with its result.
COMPOUND	METRIC	ENDPOINT_VALUE
O=C[C@@H](CO)O[C@H](C=O)n1cnc2c(=O)[nH]c(=O)[nH]c21 [Dialdehyde-xanthosine, dialdehyde form of xanthosine]	CC50	> 10 mM
Nc1nc2c(ncn2[C@@H](CO)OC(CO)CO)c(=O)[nH]1 [Acyclic diol-guanosine, acyclic diol form of guanosine]	CC50	> 10 mM
O=c1[nH]c(=O)c2ncn([C@@H](CO)OC(CO)CO)c2[nH]1 [Acyclic diol-xanthosine, acyclic diol form of xanthosine]	CC50	> 10 mM
O=C[C@@H](CO)O[C@H](C=O)n1cnc2c(=O)[nH]cnc21 [Dialdehyde-inosine, dialdehyde form of inosine]	CC50	> 10 mM

-- ask Supply reported CC50 belonging to this compound: O=c1[nH]cnc2c1ncn2[C@@H](CO)OC(CO)CO [Acyclic diol-inosine, acyclic diol form of inosine]
-- reply > 10 mM

----------
- Test system: IBV
- TEST_PROTOCOL: microbe, parasite or virus in culture
- Format: cell-based, Avian Infectious Bronchitis virus
- CONDITION_INFO: Avian coronavirus, Vero, 96 h, read-out: IBV infection inhibition concentration IC50
METRIC: pIC50
Note on units: pIC50 is unitless, being -log10 of a concentration expressed in mol/L.

Observe how each entry below is paired with its result.
COMPOUND	ASSAY_SYSTEM	METRIC	ENDPOINT_VALUE
O=C[C@@H](CO)O[C@H](C=O)n1cnc2c(=O)[nH]c(=O)[nH]c21 [Dialdehyde-xanthosine, dialdehyde form of xanthosine]	IBV	pIC50	3.65
O=C[C@@H](CO)O[C@H](C=O)n1cnc2c(=O)[nH]cnc21 [Dialdehyde-inosine, dialdehyde form of inosine]	IBV	pIC50	4.12
Nc1nc2c(ncn2[C@@H](CO)OC(CO)CO)c(=O)[nH]1 [Acyclic diol-guanosine, acyclic diol form of guanosine]	IBV	pIC50	2.75

In the following, a different compound is considered.
-- ask Supply reported pIC50 belonging to this compound: O=c1[nH]cnc2c1ncn2[C@@H](CO)OC(CO)CO [Acyclic diol-inosine, acyclic diol form of inosine]
-- reply 2.57
